System: UACC-257 melanoma
TEST DESCRIPTION: NCI tumour cell line growth inhibition, 48 h
READOUT LABEL: TGI (µM)
Give the number; µM is assumed, so skip it.

Entry CC[C@@]1(OC(=O)CN)C(=O)OCc2c1cc1n(c2=O)Cc2cc3cc4c(cc3nc2-1)OCO4 needs its TGI filled in; supply it.
0.417

Entry COc1cc2c(c(OC)c1OC)C(=O)CC(c1cccc(NC(=O)c3ccc(Br)cc3)c1)O2 (stereo not given) needs its TGI filled in; supply it.
9.04

----------
System: NCI-H23 lung
TEST DESCRIPTION: NCI tumour cell line growth inhibition, 48 h
READOUT LABEL: TGI (µM)
Give the number; µM is assumed, so skip it.

COMPOUND	UNITS	DATA VALUE
O=C1CSC(/C(=C/c2ccccc2)c2nc3ccccc3[nH]2)=N1	µM	92.7
Cc1ccc(C2CC(c3ccc([N+](=O)[O-])cc3)=Nc3ccccc3S2)cc1 (stereo not given)	µM	77.4

// below: TGI requested for another compound
Entry CCN(CC)CCNc1ccc2ncn3c4c(OC)ccc(OC)c4c(=O)c1c23 needs its TGI filled in; supply it.
75.5

----------
System: HCT-15 colon
TEST DESCRIPTION: NCI tumour cell line growth inhibition, 48 h
This section presents molecules with their documented TGI values.

# count of solved cases: 5
MOLECULE	TGI
Cc1ccc(C2CC(c3ccc([N+](=O)[O-])cc3)=Nc3ccccc3S2)cc1 (stereo unspecified)	46.2 µM
CC[C@@]1(OC(=O)CN)C(=O)OCc2c1cc1n(c2=O)Cc2cc3cc4c(cc3nc2-1)OCO4	> 100 µM
COc1cc(-c2nn(-c3ccc(NC(=O)Nc4ccc(Cl)c(Cl)c4)cc3)cc2-c2ccncc2)ccc1Cl	14.1 µM
Cc1c(C(=O)CC(=O)C(=O)Nc2c(C(C)C)cccc2C(C)C)[n+](=O)c2ccccc2n1[O-]	8.43 µM
[N-]=[N+]=Nc1ccc(NCCCCCC(=O)ON2C(=O)CCC2=O)c([N+](=O)[O-])c1	> 100 µM

State TGI (HCT-15 colon) of O=c1oc2cc(N=Cc3ccccc3Cl)ccc2c2ccccc12 .
> 100 µM

State TGI (HCT-15 colon) of C/C(=N/NC(=O)c1ccncc1)c1ccc(NC(=O)C(=O)Nn2c(=S)[nH]c3ccccc3c2=O)cc1 .
> 100 µM

State TGI (HCT-15 colon) of C=CCn1c(=O)c2cnc(Nc3ccc(N4CCN(C)CC4)cc3)nc2n1-c1ccc2c(n1)[C@@](O)(CC)CC2 .
13.8 µM

State TGI (HCT-15 colon) of O=C(c1ccccc1)C(c1ccccc1)C1(O)C(=O)Nc2ccccc21 (stereo unspecified) .
> 100 µM

State TGI (HCT-15 colon) of CCOC(=O)C1=C(C)NC2SC(=O)/C(=C\c3ccccc3Cl)N2C1c1ccccc1 (stereo unspecified) .
> 100 µM

State TGI (HCT-15 colon) of O=C1CSC(/C=C/c2ccccc2)N1c1ccc(-c2ccc(-n3c(-c4ccccc4)nc4ccccc4c3=O)cc2)cc1 (stereo unspecified) .
66.8 µM

State TGI (HCT-15 colon) of CCC(C)C(C(=O)N/N=C1/SCC(=O)N1C)C(=O)N/N=C1/SCC(=O)N1C (stereo unspecified) .
> 100 µM

State TGI (HCT-15 colon) of CC1(C)C(c2ccccc2)C12CCC1(C2=O)C(c2ccccc2)C1(C)C (stereo unspecified) .
51.8 µM

State TGI (HCT-15 colon) of COC(=O)Nc1nc2ccc(Oc3ccc4nc(NC(=O)OC)[nH]c4c3)cc2[nH]1 .
> 100 µM

State TGI (HCT-15 colon) of CC(=O)[CH-]C(=O)c1ccccc1.CC(=O)[CH-]C(=O)c1ccccc1.COc1cccc([O-])c1[O-].[Ti+4] .
> 100 µM

State TGI (HCT-15 colon) of Cc1ccc(NC(=O)CC/C(CC(=O)C(C)(C)C)=N/NC(=O)C(N)=O)cc1C .
> 100 µM

State TGI (HCT-15 colon) of C=CCN1C(=O)CC1N(CC=C)S(=O)(=O)c1ccc(C)cc1 (stereo unspecified) .
> 100 µM

State TGI (HCT-15 colon) of O=C1c2cccc3cccc(c23)C(=O)N1CCCNCCCCNCCCN1C(=O)c2cccc3cccc(c23)C1=O .
13.8 µM

State TGI (HCT-15 colon) of CN1CCC(CNC(=O)CCCCCCCCC(=O)NCC2(c3ccccc3)CCN(C)CC2)(c2ccccc2)CC1 .
> 100 µM

State TGI (HCT-15 colon) of N=CCCN(CCC=N)c1ccc(/C=C2\CN(NC(=O)c3ccc(Cl)cc3)C(c3ccccc3)=N2)cc1 .
> 100 µM
